Measured values drawn from the METLIN SMRT retention time set (Domingo-Almenara et al. 2019) for this set.

- PROTOCOL_DETAILS: gradient 5% acetonitrile 3 min, to 50% in 2 min, to 85% in 15 min, held 3 min, 100 µL/min
- CONDITION: column: Zorbax Extend-C18 2.1 x 50 mm; eluents: water / acetonitrile, 0.1% formic acid
PROPERTY: RP-LC retention time (s)

INSERT INTO results (molecule, property, units_text, observed_value) VALUES
  ('CCc1nccn1Cc1nc(-c2cccc(C(F)(F)F)c2)no1', 'RP-LC retention time', 's', 686),
  ('CCCCNC(=O)C1CCN(c2nc3ccc(-c4cncnc4)nc3s2)CC1', 'RP-LC retention time', 's', 788),
  ('COc1ccc(NS(=O)(=O)c2ccc(/C=C\c3onc(C)c3NC(C)=O)cc2)cc1', 'RP-LC retention time', 's', 779),
  ('O=S(=O)(c1cccc2nsnc12)N1CCCn2nc(-c3ccncc3)cc2C1', 'RP-LC retention time', 's', 591),
  ('CCCn1cc(S(=O)(=O)NCc2cccc(F)c2)c2cccnc21', 'RP-LC retention time', 's', 936),
  ('O=c1c2ccccc2c(-c2nc(-c3cccnc3)no2)cn1-c1cccc(Cl)c1', 'RP-LC retention time', 's', 1130),
  ('CSc1ccc(CC(=O)Nc2nnc(-c3cc(C)n(C)n3)o2)cc1', 'RP-LC retention time', 's', 669),
  ('Cc1cc2c(cc1S(=O)(=O)NC(C)C)N(C(=O)C1CC1)CC2', 'RP-LC retention time', 's', 808),
  ('Cc1oc(C2CCN(C(=O)Cc3ccccc3Cl)CC2)nc1C(=O)N1CCOCC1', 'RP-LC retention time', 's', 716),
  ('Cc1cc(N2CCN(C)CC2)nc2ccc(NC(=S)NCc3ccc(F)cc3Cl)cc12', 'RP-LC retention time', 's', 612),
  ('Cc1nsc2ncc(C(=O)N3CCOCC3)c(N3CCC(C(=O)Nc4ccc(F)cc4Cl)CC3)c12', 'RP-LC retention time', 's', 811);
